Where do the numbers come from? From patent US6180651A.

# System: COX-1 (Ovis aries, UniProt P05979)
# Construct: purified enzyme from ram seminal vesicles; from tissue; host or cells: ram seminal vesicles (purified enzyme)
# Measurement Protocol: inhibition of COX-1 enzymatic activity (PGE2 by EIA)
# Type: biochemical
# Details: purified enzyme from ram seminal vesicles; arachidonic acid 6 μM; n=1 to 4 determinations
pIC50: −log10 of the molar value.
Endpoint Name: pIC50

[I] NS(=O)(=O)c1ccc(/C(=C2\CCOC2=O)c2ccc(F)c(Cl)c2)cc1 [143 (Z isomer)]
[II] NS(=O)(=O)c1ccc(/C(=C2\CCOC2=O)c2ccc(F)cc2)cc1 [60 (E isomer)]
Input: Between these two entries, I and II , state which has the higher pIC50. // return label of chosen record
Output: I
(I: 4.90, II: 4.09)

---

# System: UniProt:P79208
# Sequence (P79208 17-603): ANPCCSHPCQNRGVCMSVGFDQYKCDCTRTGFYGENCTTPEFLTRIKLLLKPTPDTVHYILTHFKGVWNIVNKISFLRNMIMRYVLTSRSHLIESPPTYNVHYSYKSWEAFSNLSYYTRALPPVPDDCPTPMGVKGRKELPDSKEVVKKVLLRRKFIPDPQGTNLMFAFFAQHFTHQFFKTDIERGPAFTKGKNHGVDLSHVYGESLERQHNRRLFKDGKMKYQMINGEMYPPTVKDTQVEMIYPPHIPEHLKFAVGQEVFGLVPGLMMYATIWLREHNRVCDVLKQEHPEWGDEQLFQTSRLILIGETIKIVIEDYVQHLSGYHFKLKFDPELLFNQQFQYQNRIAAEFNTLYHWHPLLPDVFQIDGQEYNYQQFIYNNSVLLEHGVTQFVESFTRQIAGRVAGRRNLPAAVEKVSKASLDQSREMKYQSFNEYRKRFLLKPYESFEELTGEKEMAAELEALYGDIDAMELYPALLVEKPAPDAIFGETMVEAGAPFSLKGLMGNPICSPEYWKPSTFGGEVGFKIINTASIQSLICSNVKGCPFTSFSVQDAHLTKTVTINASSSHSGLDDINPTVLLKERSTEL
Endpoint Name: IC50 (nM)

>>> readout_number("CCC1C/C(=C(/c2ccc(F)cc2)c2ccc(S(C)(=O)=O)cc2)C(=O)O1 (stereo not drawn) [34 (E isomer)]")
694

[a] CS(=O)(=O)c1ccc(/C(=C2\CCOC2=O)c2cc(F)cc(F)c2)cc1 [80 (Z isomer)]
[b] Cc1ccc(/C(=C2/CCOC2=O)c2ccc(S(C)(=O)=O)cc2)cc1 [85 (E isomer)]
[c] CC1(C)C/C(=C(/c2ccc(F)cc2)c2ccc(S(C)(=O)=O)cc2)C(=O)O1 [31 (E isomer)]
Input: Endpoint returns the given compounds ordered by ascending IC50. The reply should contain the labels ordered as requested.
Output: b, a, c
(b: 350 nM, a: 518 nM, c: 780 nM)

---

Target sequence: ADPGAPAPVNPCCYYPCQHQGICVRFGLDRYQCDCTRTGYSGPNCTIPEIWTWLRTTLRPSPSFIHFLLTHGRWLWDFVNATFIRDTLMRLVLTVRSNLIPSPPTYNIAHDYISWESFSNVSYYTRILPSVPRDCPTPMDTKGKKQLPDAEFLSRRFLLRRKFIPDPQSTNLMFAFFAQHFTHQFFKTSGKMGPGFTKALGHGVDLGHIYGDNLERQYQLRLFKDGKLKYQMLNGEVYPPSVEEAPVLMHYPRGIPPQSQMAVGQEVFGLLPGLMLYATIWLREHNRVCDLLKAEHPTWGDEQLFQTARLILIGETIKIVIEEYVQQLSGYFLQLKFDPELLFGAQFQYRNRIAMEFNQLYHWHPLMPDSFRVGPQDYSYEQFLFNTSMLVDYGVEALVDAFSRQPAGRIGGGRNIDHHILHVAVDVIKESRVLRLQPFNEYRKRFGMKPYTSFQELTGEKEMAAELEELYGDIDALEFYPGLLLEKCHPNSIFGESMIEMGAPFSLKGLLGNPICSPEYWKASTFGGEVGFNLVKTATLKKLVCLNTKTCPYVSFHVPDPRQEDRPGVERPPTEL
pIC50: −log10 of the molar value.
Endpoint Name: pIC50

>>> readout_number("CS(=O)(=O)c1ccc(/C(=C2\\CCOC2=O)c2ccc(Cl)c(Cl)c2)cc1 [18 (Z isomer)]")
4.14
>>> readout_number("CS(=O)(=O)c1ccc(/C(=C2\\CCOC2=O)c2ccc(Cl)cc2)cc1 [8 (Z isomer)]")
3.76
>>> readout_number("CS(=O)(=O)c1ccc(/C(=C2\\CCOC2=O)c2ccc(Br)cc2)cc1 [100 (Z isomer)]")
4.21
>>> readout_number("NS(=O)(=O)c1ccc(/C(=C2\\CCOC2=O)c2ccc(Cl)cc2)cc1 [125 (Z isomer)]")
5.60

[1] CS(=O)(=O)c1ccc(/C(=C2\CCOC2=O)c2ccc(F)c(Cl)c2)cc1 [95 (Z isomer)]
[2] Cc1ccc(/C(=C2/CCOC2=O)c2ccc(S(N)(=O)=O)cc2)cc1F [130 (Z isomer)]
[3] Cc1cc(/C(=C2/CCOC2=O)c2ccc(S(N)(=O)=O)cc2)ccc1F [135 (Z isomer)]
Input: Descending sort on pIC50 required. The reply should contain the labels ordered as requested.
Output: 3, 2, 1
(3: 4.71, 2: 4.34, 1: 3.51)

---

# System: COX-2 (Ovis aries, UniProt P79208)
# Construct: purified enzyme from ewe placenta; from tissue; host or cells: ewe placenta (purified enzyme)
# Measurement Protocol: inhibition of COX-2 enzymatic activity (PGE2 by EIA)
# Format: biochemical, ewe
# Details: ratio of IC50 COX-1 / IC50 COX-2
Endpoint Name: Selectivity COX-1/COX-2 ratio

Past entries and their recorded results:
>>> readout_number("CS(=O)(=O)c1ccc(/C(=C2\\CCOC2=O)c2ccc(Cl)c(Cl)c2)cc1 [18 (Z isomer)]")
555
>>> readout_number("NS(=O)(=O)c1ccc(/C(=C2\\CCOC2=O)c2ccc(F)c(Cl)c2)cc1 [143 (Z isomer)]")
174
>>> readout_number("CS(=O)(=O)c1ccc(/C(=C2\\CCOC2=O)c2ccc(Br)cc2)cc1 [100 (Z isomer)]")
373
>>> readout_number("Cc1ccc(/C(=C2/CCOC2=O)c2ccc(S(N)(=O)=O)cc2)cc1F [130 (Z isomer)]")
349
>>> readout_number("CS(=O)(=O)c1ccc(/C(=C2\\CCOC2=O)c2ccc(Cl)cc2)cc1 [8 (Z isomer)]")
944

[A] Cc1cc(/C(=C2/CCOC2=O)c2ccc(S(N)(=O)=O)cc2)ccc1F [135 (Z isomer)]
[B] CS(=O)(=O)c1ccc(/C(=C2\CCOC2=O)c2ccc(F)c(Cl)c2)cc1 [95 (Z isomer)]
[C] NS(=O)(=O)c1ccc(/C(=C2\CCOC2=O)c2ccc(F)cc2)cc1 [60 (E isomer)]
Input: Descending sort on Selectivity COX-1/COX-2 ratio required. The reply should contain the labels ordered as requested.
Output: B, C, A
(B: 1510, C: 274, A: 80)

---

Parameter 'readout' = IC50; parameter 'system' = COX-1 (Ovis aries).

Past entries and their recorded results:
>>> result("CS(=O)(=O)c1ccc(/C(=C2\\CCOC2=O)c2cc(F)cc(F)c2)cc1 [80 (Z isomer)]")
"> 100 µM"
>>> result("CS(=O)(=O)c1ccc(/C(=C2\\CCOC2=O)c2cccc(Br)c2)cc1 [90 (Z isomer)]")
"> 100 µM"
>>> result("CS(=O)(=O)c1ccc(/C(=C2\\CCOC2=O)c2ccccc2)cc1 [28 (E isomer)]")
"> 10 µM"
>>> result("CS(=O)(=O)c1ccc(/C(=C2\\CCOC2=O)c2ccc(F)cc2)cc1 [4 (E isomer)]")
"> 300 µM"
>>> result("CS(=O)(=O)c1ccc(/C(=C2/CCOC2=O)c2cccc(Cl)c2)cc1 [23 (E)]")
"> 100 µM"
>>> result("CS(=O)(=O)c1ccc(/C(=C2\\CCOC2=O)c2cc(Cl)cc(Cl)c2)cc1 [70 (Z isomer)]")
"> 100 µM"
>>> result("CS(=O)(=O)c1ccc(/C(=C2\\CCOC2=O)c2ccc(F)c(F)c2)cc1 [54 (Z isomer)]")
"> 100 µM"
>>> result("CS(=O)(=O)c1ccc(/C(=C2\\CCOC2=O)c2cccc(F)c2)cc1 [13 (Z isomer)]")
"> 100 µM"
>>> result("Cc1ccc(/C(=C2/CCOC2=O)c2ccc(S(C)(=O)=O)cc2)cc1 [85 (E isomer)]")
"> 100 µM"

--- query ---
The recorded IC50 with COX-1 (Ovis aries) for CCC1C/C(=C(/c2ccc(F)cc2)c2ccc(S(C)(=O)=O)cc2)C(=O)O1 (stereo not drawn) [34 (E isomer)] was > 100 µM

---

# System: COX-2 (Ovis aries, UniProt P79208)
# Construct: purified enzyme from ewe placenta; from tissue; host or cells: ewe placenta (purified enzyme)
# Measurement Protocol: inhibition of COX-2 enzymatic activity (PGE2 by EIA)
# Format: biochemical, ewe
# Details: ratio of IC50 COX-1 / IC50 COX-2
Endpoint Name: Selectivity COX-1/COX-2 ratio

Selectivity COX-1/COX-2 ratio measured on CS(=O)(=O)c1ccc(/C(=C2\CCOC2=O)c2cccc(F)c2)cc1 [13 (Z isomer)] = > 164

Selectivity COX-1/COX-2 ratio measured on CS(=O)(=O)c1ccc(/C(=C2/CCOC2=O)c2cccc(Cl)c2)cc1 [23 (E)] = > 159

Selectivity COX-1/COX-2 ratio measured on CS(=O)(=O)c1ccc(/C(=C2\CCOC2=O)c2ccccc2)cc1 [28 (E isomer)] = > 0.5

Selectivity COX-1/COX-2 ratio measured on CS(=O)(=O)c1ccc(/C(=C2\CCOC2=O)c2cc(F)cc(F)c2)cc1 [80 (Z isomer)] = > 193

Selectivity COX-1/COX-2 ratio measured on CS(=O)(=O)c1ccc(/C(=C2\CCOC2=O)c2ccc(F)cc2)cc1 [4 (E isomer)] = > 445

Selectivity COX-1/COX-2 ratio measured on CS(=O)(=O)c1ccc(/C(=C2\CCOC2=O)c2cc(Cl)cc(Cl)c2)cc1 [70 (Z isomer)] = > 444

Selectivity COX-1/COX-2 ratio measured on NS(=O)(=O)c1ccc(/C(=C2\CCOC2=O)c2ccc(Cl)cc2)cc1 [125 (Z isomer)] = 42

Selectivity COX-1/COX-2 ratio measured on Cc1cccc(/C(=C2/CCOC2=O)c2ccc(S(C)(=O)=O)cc2)c1 [49 (Z isomer)] = > 239

Selectivity COX-1/COX-2 ratio measured on CCC1C/C(=C(/c2ccc(F)cc2)c2ccc(S(C)(=O)=O)cc2)C(=O)O1 (stereo not drawn) [34 (E isomer)] = > 144

Selectivity COX-1/COX-2 ratio measured on CC1(C)C/C(=C(/c2ccc(F)cc2)c2ccc(S(C)(=O)=O)cc2)C(=O)O1 [31 (E isomer)] = > 128

Selectivity COX-1/COX-2 ratio measured on Cc1ccc(/C(=C2/CCOC2=O)c2ccc(S(C)(=O)=O)cc2)cc1 [85 (E isomer)] = > 286

Selectivity COX-1/COX-2 ratio measured on CS(=O)(=O)c1ccc(/C(=C2\CCOC2=O)c2ccc(F)c(F)c2)cc1 [54 (Z isomer)] = > 141

Selectivity COX-1/COX-2 ratio measured on CS(=O)(=O)c1ccc(/C(=C2\CCOC2=O)c2cccc(Br)c2)cc1 [90 (Z isomer)] = > 218
